molecular target: GPR40 (Homo sapiens, UniProt O14842); assay: Inositol phosphate accumulation assay (A9 cell line stably transfected with GPR40); format: cell-based; design: expressed in transfected cells; conditions: human GPR40, A9_GPR40 cells, 1 hour at 37° C.; read-out: IP3 EC50 (inositol phosphate assay data)
Sequence (O14842 whole entry): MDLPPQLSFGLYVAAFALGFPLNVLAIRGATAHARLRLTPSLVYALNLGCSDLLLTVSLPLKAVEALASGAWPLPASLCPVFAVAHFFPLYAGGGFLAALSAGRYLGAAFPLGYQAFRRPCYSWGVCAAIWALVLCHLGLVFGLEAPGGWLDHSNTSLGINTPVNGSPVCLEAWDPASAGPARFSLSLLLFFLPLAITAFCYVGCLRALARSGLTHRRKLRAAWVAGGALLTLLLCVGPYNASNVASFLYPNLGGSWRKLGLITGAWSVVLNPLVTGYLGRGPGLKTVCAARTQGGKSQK
pEC50: −log10 of the molar value.
Property measured: pEC50

compound="COc1ccc(F)c(-c2ccc(COc3ccc4c(c3)[C@@H](CC(=O)O)CC4)cc2[C@@H](OC)C(C)(C)C)c1 (single isomer, unassigned) [Example 24]" value_observed="7.00 to 8.00"
compound="COc1cc(-c2cc(F)c(COc3ccc4c(c3)[C@@](C)(CC(=O)O)CC4)cc2[C@H]2CCCC2(C)C)c(F)cn1 (single isomer, unassigned) [Example 34]" value_observed="> 8.00"
compound="COc1ccc(F)c(-c2ccc(COc3ccc4c(c3)[C@@H](CC(=O)O)CCC4)cc2C(C)(C)C)c1 (single isomer, unassigned) [Example 6]" value_observed="6.00 to 7.00"
compound="COc1cc(-c2ccc(COc3ccc4c(c3)[C@@](C)(CC(=O)O)CC4)cc2[C@@H](OC)C(C)(C)C)c(F)cn1 (single isomer, unassigned) [Example 37]" value_observed="> 8.00"
compound="COc1ccc(F)c(-c2ccc(COc3ccc4c(c3)[C@@H](C(C)(C)C(=O)O)CC4)cc2[C@H]2CCCC2(C)C)c1 (single isomer, unassigned) [Example 21]" value_observed="7.00 to 8.00"
compound="COc1cc(-c2ccc(COc3ccc4c(c3)[C@@H](CC(=O)O)CCC4)cc2[C@H]2CCCC2(C)C)c(F)cn1 (single isomer, unassigned) [Example 46]" value_observed="7.00 to 8.00"

====

Here the recorded EC50 is given for each entry.
molecular target: GPR40 (Homo sapiens); experiment: Inositol phosphate accumulation assay (A9 cell line stably transfected with GPR40); type: cell-based; design: expressed in transfected cells; conditions: human GPR40, A9_GPR40 cells, 1 hour at 37° C.; read-out: IP3 EC50 (inositol phosphate assay data)
Property measured: EC50

compound="COc1cc(-c2ccc(COc3ccc4c(c3F)[C@@](C)(CC(=O)O)CC4)cc2[C@@H](OC)C(C)(C)C)c(F)cn1 (single isomer, unassigned)" property_measured=EC50 value_observed="10 to 100 nM"
compound="COc1ccc(F)c(-c2ccc(COc3ccc4c(c3)[C@@](C)(CC(=O)O)CC4)cc2[C@@H]2CCCC2(C)C)c1 (single isomer, unassigned)" property_measured=EC50 value_observed="< 10 nM"
compound="COc1cc(-c2ccc(COc3ccc4c(c3F)[C@@](C)(CC(=O)O)CC4)cc2[C@H]2CCCC2(C)C)c(F)cn1 (single isomer, unassigned)" property_measured=EC50 value_observed="10 to 100 nM"
compound="COc1ccc(F)c(-c2ccc(COc3ccc4c(c3)[C@@H](C(C)C(=O)O)CC4)cc2C(C)(C)C)c1 (single isomer, unassigned)" property_measured=EC50 value_observed="100 to 1000 nM"
compound="CC[C@]1(CC(=O)O)CCc2ccc(OCc3ccc(-c4cc(OC)ccc4F)c([C@@H](OC)C(C)(C)C)c3)cc21 (single isomer, unassigned) [Example 44]" property_measured=EC50 value_observed="10 to 100 nM"
compound=COc1ccc(F)c(-c2ccc(COc3ccc4c(c3)[C@H]([C@@H](C)C(=O)O)CC4)cc2C2=CCCC2(C)C)c1 property_measured=EC50 value_observed="10 to 100 nM"
compound="CC[C@]1(CC(=O)O)CCc2ccc(OCc3ccc(-c4cc(OC)ncc4F)c([C@H]4CCCC4(C)C)c3)cc21 (single isomer, unassigned)" property_measured=EC50 value_observed="10 to 100 nM"
compound=COc1ccc(F)c(-c2ccc(COc3ccc4c(c3)[C@H]([C@@H](C)C(=O)O)CC4)cc2[C@H]2CCCC2(C)C)c1 property_measured=EC50 value_observed="10 to 100 nM"

Data origin: patent US8450522B2
